Entry source: ChEMBL document CHEMBL1148514

Listed here are compounds together with their documented Activity.
Target: Proteasome component C5 (Saccharomyces cerevisiae S288c) (UniProt P23724)
Sequence (whole entry): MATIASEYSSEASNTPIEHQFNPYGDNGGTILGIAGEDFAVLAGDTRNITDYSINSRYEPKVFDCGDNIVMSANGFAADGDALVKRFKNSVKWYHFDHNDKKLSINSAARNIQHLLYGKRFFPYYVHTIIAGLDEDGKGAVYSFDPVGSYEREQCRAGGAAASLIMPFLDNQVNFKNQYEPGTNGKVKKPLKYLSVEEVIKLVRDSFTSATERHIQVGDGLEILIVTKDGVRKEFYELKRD
Assay: Activation of post acid activity of yeast 20S proteasome
Residues, ends and D or L forms follow the SMILES beside them.
Quantity measured: Activity

Compound: CCCCCCCCCCCCCC(=O)N[C@H](C(=O)N[C@H](C(=O)N[C@H](C(=O)N[C@@H](Cc1ccccc1)C(=O)N[C@@H](CC(=O)O)C(=O)N[C@@H](Cc1ccc(O)cc1)C(=O)O)[C@@H](C)O)[C@@H](C)CC)[C@@H](C)O (HELM PEPTIDE1{[CCCCCCCCCCCCCC(=O)[*:2]].T.I.T.F.D.Y}$$$$V2.0)
Quantity measured: Activity
Test result: 1.3
//
Compound: CCCCCCCCCCCCCC(=O)N[C@H](C(=O)N[C@H](C(=O)N[C@H](C(=O)N[C@@H](Cc1ccc(O)cc1)C(=O)N[C@@H](CCCCN)C(=O)N[C@@H](Cc1ccccc1)C(=O)O)[C@@H](C)O)C(C)C)[C@@H](C)O (HELM PEPTIDE1{[CCCCCCCCCCCCCC(=O)[*:2]].T.V.T.Y.K.F}$$$$V2.0)
Quantity measured: Activity
Test result: 1.2
//
Compound: CCCCCCCCCCCC(=O)N[C@H](C(=O)N[C@H](C(=O)N[C@H](C(=O)N[C@@H](Cc1ccc(O)cc1)C(=O)N[C@@H](CCCCN)C(=O)N[C@@H](Cc1ccccc1)C(=O)O)[C@@H](C)O)C(C)C)[C@@H](C)O (HELM PEPTIDE1{[CCCCCCCCCCCC(=O)[*:2]].T.V.T.Y.K.F}$$$$V2.0)
Quantity measured: Activity
Test result: 1.2
//
Compound: CCCCCCCCCCCCCCCC(=O)N[C@H](C(=O)N[C@H](C(=O)N[C@H](C(=O)N[C@@H](Cc1ccccc1)C(=O)N[C@@H](CC(=O)O)C(=O)N[C@@H](Cc1ccc(O)cc1)C(=O)O)[C@@H](C)O)[C@@H](C)CC)[C@@H](C)O (HELM PEPTIDE1{[CCCCCCCCCCCCCCCC(=O)[*:2]].T.I.T.F.D.Y}$$$$V2.0)
Quantity measured: Activity
Test result: 1.5

====

Listed here are molecules together with their documented pKi.
Target: Proteasome Macropain subunit PRE2 (Saccharomyces cerevisiae S288c, UniProt P30656)
Sequence (P30656 whole entry): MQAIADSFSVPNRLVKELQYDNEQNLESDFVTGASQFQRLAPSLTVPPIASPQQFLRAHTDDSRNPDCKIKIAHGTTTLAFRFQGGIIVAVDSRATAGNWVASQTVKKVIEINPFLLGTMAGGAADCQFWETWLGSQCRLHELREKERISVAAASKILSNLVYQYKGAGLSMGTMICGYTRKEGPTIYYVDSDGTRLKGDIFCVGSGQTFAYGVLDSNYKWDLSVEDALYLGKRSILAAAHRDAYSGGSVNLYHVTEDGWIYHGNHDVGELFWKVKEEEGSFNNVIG
Experiment: Inhibition of chymotrypsin like activity of yeast 20S proteasome
pKi: −log10 of the molar value. Residues, ends and D or L forms follow the SMILES beside them.

Molecule: CCCCCCCCCC(=O)N[C@H](C(=O)N[C@H](C(=O)N[C@H](C(=O)N[C@@H](Cc1ccccc1)C(=O)N[C@@H](CCCCN)C(=O)N[C@@H](Cc1ccccc1)C(=O)O)[C@@H](C)O)C(C)C)[C@@H](C)O (HELM PEPTIDE1{[CCCCCCCCCC(=O)[*:2]].T.V.T.F.K.F}$$$$V2.0)
pKi: 4.55

Molecule: CCCCCCCC(=O)N[C@H](C(=O)N[C@H](C(=O)N[C@H](C(=O)N[C@@H](Cc1ccccc1)C(=O)N[C@@H](CC(=O)O)C(=O)N[C@@H](Cc1ccc(O)cc1)C(=O)O)[C@@H](C)O)[C@@H](C)CC)[C@@H](C)O (HELM PEPTIDE1{[CCCCCCCC(=O)[*:2]].T.I.T.F.D.Y}$$$$V2.0)
pKi: 4.37

Molecule: CCCCCCCCCCCCCCCC(=O)N[C@@H](Cc1ccc(O)cc1)C(=O)N[C@@H](CCC(=O)O)C(=O)N[C@H](C(=O)O)[C@@H](C)O (HELM PEPTIDE1{[CCCCCCCCCCCCCCCC(=O)[*:2]].Y.E.T}$$$$V2.0)
pKi: 4.70

Molecule: CCCCCC(=O)N[C@H](C(=O)N[C@H](C(=O)N[C@H](C(=O)N[C@@H](Cc1ccc(O)cc1)C(=O)N[C@@H](CCCCN)C(=O)N[C@@H](Cc1ccccc1)C(=O)O)[C@@H](C)O)C(C)C)[C@@H](C)O (HELM PEPTIDE1{[CCCCCC(=O)[*:2]].T.V.T.Y.K.F}$$$$V2.0)
pKi: 4.10
